# cond: [M-H]-; instrument: DT; single field, calibrated with ESI Low Concentration Tuning Mix (Agilent)
Overview of reported collision cross section (N2) across a group of molecules:
Write the value in Å² as a bare number.

Examples with answers:
{"molecule": "CC(=O)N[C@@H](CC(C)C)C(=O)O [N-ACETYLLEUCINE]", "observed.value": 140.5}
{"molecule": "N[C@@H](CSSC[C@H](N)C(=O)O)C(=O)O [CYSTINE]", "observed.value": 143}
{"molecule": "C[C@@H](O)[C@H](N)C(=O)O [THREONINE]", "observed.value": 120.2}

Now for a further molecule.
For the molecule CC(=O)NCCCC(=O)O [4-ACETAMIDOBUTANOATE] , give its reported collision cross section (N2).
130.8

----------
# cond: [M+Na]+; instrument: DT; stepped-field
measurement.type: collision cross section (N2) (Å²)
Write the value in Å² as a bare number.

Examples with answers:
{"compound": "CCCCCCCCCCCCCCCC(=O)O[C@H](COC(=O)CCCCCCCCCCC)COP(=O)(O)OC[C@H](N)C(=O)O [PS(14:0/14:0)]", "collision cross section (N2) (Å²)": 247.83}
{"compound": "O=C(O)/C=C(\\CC(=O)O)C(=O)O [Trans-Aconitic Acid]", "collision cross section (N2) (Å²)": 149.13}

For the compound O=C(CO)[C@@H](O)[C@@H](O)CO [L-Ribulose] , give its reported collision cross section (N2).
132.81

For the compound CCCCCCCCCCCCCCCC(=O)OC(CC(=O)[O-])C[N+](C)(C)C (stereo not given) [Palmitoylcarnitine] , give its reported collision cross section (N2).
230.37

For the compound Cn1c(=O)c2[nH]cnc2n(C)c1=O [Theophylline] , give its reported collision cross section (N2).
149.63

----------
# cond: [M+Na]+; instrument: DT; stepped-field
Overview of reported collision cross section (N2) across a group of molecules:
Write the value in Å² as a bare number.

{"molecule": "O=c1nc[nH]c2c1ncn2[C@@H]1O[C@H](CO)[C@@H](O)[C@H]1O [Inosine]", "observed.value": 175.37}
{"molecule": "CCCCCC1OC1C/C=C\\C/C=C\\C/C=C\\CCCC(=O)O (configuration not stated) [14(15)-EET]", "observed.value": 187.07}
{"molecule": "N[C@@H](CS)C(=O)O [L-Cysteine]", "observed.value": 151.34}
{"molecule": "CCCCC[C@H](O)/C=C/[C@@H]1[C@H]2C/C(=C/CCCC(=O)O)O[C@H]2C[C@H]1O [Prostaglandin I2]", "observed.value": 196.67}
{"molecule": "OC[C@H]1O[C@@](CO)(O[C@H]2O[C@H](CO)[C@@H](O)[C@H](O)[C@H]2O)[C@@H](O[C@H]2O[C@H](CO)[C@@H](O)[C@H](O)[C@H]2O)[C@@H]1O [Melezitose]", "observed.value": 203.23}
{"molecule": "C=CC(C)(O)CCC=C(C)C (configuration not stated) [Linalool]", "observed.value": 140.55}

Now for a further molecule.
For the molecule CC(=O)N[C@H]1[C@H](O[C@H]2[C@@H](O)[C@@H](CO)O[C@@H](O[C@H]3[C@H](O)[C@@H](O)C(O)O[C@@H]3CO)[C@@H]2O)O[C@H](CO)[C@@H](O)[C@@H]1O[C@@H]1O[C@H](CO)[C@H](O)[C@H](O)[C@H]1O (some centres not stated) [Lacto-N-Tetraose] , give its reported collision cross section (N2).
239.18

----------
# cond: [M+H]+; instrument: DT; stepped-field
Overview of reported collision cross section (N2) across a group of molecules:
Write the value in Å² as a bare number.

Examples with answers:
{"molecule": "C[C@]12CCC(=O)C=C1CC[C@@H]1[C@@H]2[C@@H](O)C[C@]2(C=O)[C@@H](C(=O)CO)CC[C@@H]12 [Aldosterone]", "units.text": "Å²", "collision cross section (N2)": 196.05}
{"molecule": "O=C(O)c1ccc(=O)[nH]c1 [6-Hydroxynicotinate]", "units.text": "Å²", "collision cross section (N2)": 136.43}
{"molecule": "O=C(O)CC(=O)C(=O)O [Oxaloacetic Acid]", "units.text": "Å²", "collision cross section (N2)": 139.45}

For the molecule C[C@@H]1O[C@@H](O[C@H]2C(=O)c3c(O)cc(O)cc3O[C@@H]2c2ccc(O)c(O)c2)[C@H](O)[C@H](O)[C@H]1O [Astilbin] , give its reported collision cross section (N2).
205.87

For the molecule O=c1c(-c2ccc(O)cc2)coc2cc(O)cc(O)c12 [Genistein] , give its reported collision cross section (N2).
163.3

For the molecule c1ccc2ccccc2c1 [Naphthalene] , give its reported collision cross section (N2).
120.28

For the molecule N[C@@H](Cc1cnc[nH]1)C(=O)O [L-Histidine] , give its reported collision cross section (N2).
132.41

For the molecule NC(=O)c1cccnc1 [Nicotinamide] , give its reported collision cross section (N2).
129.32

For the molecule N[C@H](CO)Cc1cnc[nH]1 [L-histidinol] , give its reported collision cross section (N2).
130.9

For the molecule O=C(O)/C=C(/CC(=O)O)C(=O)O [Cis-Aconitic Acid] , give its reported collision cross section (N2).
152.21

For the molecule CCCCCC(=O)/C=C/C=C/CCCCCCCC(=O)O [13-OxoODE] , give its reported collision cross section (N2).
179.4

----------
# cond: [M+H]+; instrument: DT; single field, calibrated with Agilent tune mix (Agilent)
measurement.type: collision cross section (N2) (Å²)
Write the value in Å² as a bare number.

Examples with answers:
{"compound": "Nc1ncnc2c1ncn2[C@@H]1O[C@H](CO)[C@@H](O)[C@H]1O", "units.text": "Å²", "collision cross section (N2)": 155.7}
{"compound": "N[C@H](CO)Cc1cnc[nH]1", "units.text": "Å²", "collision cross section (N2)": 128.3}
{"compound": "N[C@@H](Cc1cc(I)c(Oc2ccc(O)c(I)c2)c(I)c1)C(=O)O", "units.text": "Å²", "collision cross section (N2)": 209.7}

For the compound O=C(O)[C@H]1C[C@@H](O)CN1 [cis-4-Hydroxy-D-proline] , give its reported collision cross section (N2).
128.4

For the compound Nc1ncnc2c1ncn2[C@H]1C[C@H](O)[C@@H](COP(=O)(O)O)O1 [2'-Deoxyadenosine 5'-monophosphate] , give its reported collision cross section (N2).
168.1

For the compound O=C(O)/C=C/c1ccccc1 [trans-cinnamate] , give its reported collision cross section (N2).
125.3

For the compound `CC(=O)[C@H]1CC[C@H]2[C@@H]3CCC4=CC(=O)CC[C@]4(C)[C@H]3CC[C@]12C` , give its reported collision cross section (N2).
181.2

For the compound `CC(=O)OCC[N+](C)(C)C` , give its reported collision cross section (N2).
129.7

----------
# cond: [M+H]+; instrument: DT; single field, calibrated with ESI Low Concentration Tuning Mix (Agilent)
measurement.type: collision cross section (N2) (Å²)
Write the value in Å² as a bare number.

Examples with answers:
{"compound": "O=C(O)c1ccc2ccccc2n1 [2-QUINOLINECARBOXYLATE]", "measurement.type": "collision cross section (N2)", "observed.value": 132}
{"compound": "CC(=O)N[C@H]1[C@H]([C@H](O)[C@H](O)CO)OC(O)(C(=O)O)C[C@@H]1O (stereo not given in full) [N-ACETYLNEURAMINATE]", "measurement.type": "collision cross section (N2)", "observed.value": 166.5}
{"compound": "NCCCNCCCCNCCCN", "measurement.type": "collision cross section (N2)", "observed.value": 148.6}
{"compound": "O=C(O)c1ccc(=O)[nH]c1 [6-HYDROXYNICOTINATE]", "measurement.type": "collision cross section (N2)", "observed.value": 128.9}

Now for a further compound.
For the compound `COc1ccc2[nH]cc(CCNC(C)=O)c2c1` , give its reported collision cross section (N2).
153.2

----------
# cond: [M+H]+; instrument: TW; calibrated with polyalanine and drug standards
measurement.type: collision cross section (N2) (Å²)
Write the value in Å² as a bare number.

Examples with answers:
{"compound": "CC[C@H]1OC(=O)C[C@@H](O)[C@H](C)[C@@H](O[C@@H]2O[C@H](C)[C@@H](O)[C@H](N(C)C)[C@H]2O)[C@@H](CCN2C[C@H](C)C[C@H](C)C2)C[C@@H](C)C(=O)/C=C/C(C)=C/[C@@H]1CO[C@@H]1O[C@H](C)[C@@H](O)[C@@H](OC)[C@H]1OC", "measurement.type": "collision cross section (N2)", "units.text": "Å²", "observed.value": 310.2}
{"compound": "COc1cc(OC)c2c(c1)OC(c1ccccc1)CC2=O (stereo not given)", "measurement.type": "collision cross section (N2)", "units.text": "Å²", "observed.value": 162.8}
{"compound": "C#C[C@]1(O)CC[C@H]2[C@@H]3CCC4=CC(=O)CC[C@@H]4[C@H]3CC[C@@]21C", "measurement.type": "collision cross section (N2)", "units.text": "Å²", "observed.value": 174.4}
{"compound": "Cc1cc(O)cc(O)c1C(=O)O", "measurement.type": "collision cross section (N2)", "units.text": "Å²", "observed.value": 129.1}

Now for a further compound.
For the compound `C=C[C@H](C1=CC(=O)C=CC1=O)c1ccccc1` , give its reported collision cross section (N2).
143.6
